target: PD-1 antigen (ELISA of Example 2) (human, UniProt Q15116 25-167, limits assumed); assay: ELISA, signal on PD-1 antigen; further: test concentration or dose not given here
Sequence (Q15116 25-167 limits assumed): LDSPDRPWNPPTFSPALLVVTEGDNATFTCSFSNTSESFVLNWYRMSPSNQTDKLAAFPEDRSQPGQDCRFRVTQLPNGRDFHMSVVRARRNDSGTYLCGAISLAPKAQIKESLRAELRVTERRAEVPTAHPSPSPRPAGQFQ
So basically: is ELISA A under 1? Then true. Not under? Then false.

Query: Hello, I'm reviewing records and need to know if ELISA A of 2PD27 (VHH, PD-1 VHH) VHH: QVQLQESGGGSVQPGKSLRLSCAASGRTFSSLGMGWFRQAPGKEREFVSAIAWNGASTYYTESVKGRFTISRDDAKNTVYLQMNSLKPTDTAVYFCAASGLGSVVVTANEYDYWGQGTQVTVSS is below 1. Could you check?
Result: false

Query: API: query returns whether the binder falls strictly under 1 in ELISA A. Query: 2PD-106 (VHH, PD-1 VHH) VHH: QVQLQESGGGLVQPGGSLRLSCSASGFSMDYYAIAWFRQAPGKEREEISCITGSDFMVDTYYVASVKGRFTISRDNAKNTAHLQMNSLKPEDTGVYFCAVRSTANTLCPSHYSVMDYWGKGTQVTVSS
Result: false

Query: For 2PD82 (VHH, PD-1 VHH) VHH: QVQLQESGGGLVQPGGSLRLSCTTSGFAFGSYDMGWVRQAPGKGPEWVSGINSGGRITDYADSVTGRFTISRDNAKNTLYLQMNSLKPEDTAVYYCAQGDRSSWHYYGMDYWGKGTQVTVSS , is the recorded ELISA A below the cut-off of 1?
Result: false

Query: For 2PD26 (VHH, PD-1 VHH) VHH: QVQLQESGGGLVQAGGSLRLSCAASGFSMDYYAIAWFRQAPGKEREEISCITGSDFMVDTYYVASVKGRFTISRDNAENTAYLQMNNLKPEDTGVYFCAVRSTANTLCPSHYSVMDYWGKGTQVTVSS , is the recorded ELISA A below the cut-off of 1?
Result: true

Query: Hello, is ELISA A of the following binder strictly smaller than 1? 2PD90 (VHH, PD-1 VHH) VHH: QVQLQESGGGLVQPGGSLRLSCSASGFSVDYYAIAWFRQAPGKEREEISCITGSDFMVDTYYVASVKGRFTISRDNAKNTAYLQMNSLKPEDTGVYFCAVRSTANTLCPSHYSIMDYWGKGTQVTVSS
Result: false
